Biological target: T1, human IL-23 (IL-23-His-Biotin) (human, UniProt Q9NPF7 20-189; P29460 23-328, biotin label, site not stated)
T1 construct: Akesobio lot 20161209; His-tagged and biotinylated
T1 sequence (looked up) 1: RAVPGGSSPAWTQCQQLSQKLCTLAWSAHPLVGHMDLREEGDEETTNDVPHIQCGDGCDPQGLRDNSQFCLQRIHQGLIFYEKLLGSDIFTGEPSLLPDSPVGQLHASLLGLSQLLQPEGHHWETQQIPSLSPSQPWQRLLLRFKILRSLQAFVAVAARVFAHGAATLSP
T1 sequence (looked up) 2: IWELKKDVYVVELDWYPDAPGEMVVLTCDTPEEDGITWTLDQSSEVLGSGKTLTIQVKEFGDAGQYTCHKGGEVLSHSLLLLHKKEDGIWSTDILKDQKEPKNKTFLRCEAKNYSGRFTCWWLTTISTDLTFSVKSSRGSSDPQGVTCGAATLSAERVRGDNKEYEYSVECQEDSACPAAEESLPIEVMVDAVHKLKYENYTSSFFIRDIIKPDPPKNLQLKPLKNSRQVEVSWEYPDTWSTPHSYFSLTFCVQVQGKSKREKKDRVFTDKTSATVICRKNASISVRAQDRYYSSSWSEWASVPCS
Experiment: FACS competition, IL-23-His-Biotin 2 µg/mL on 293T-IL-12Rβ1&IL-23R cells; antibody 10 µg/mL
Field: MFI. Provide a value for each of the binders that follow.

Binder | MFI
H5L12 (antibody, human IgG1, kappa, V domains shown, human IgG1 / kappa constant regions; also called humanized antibody H5L12) VH: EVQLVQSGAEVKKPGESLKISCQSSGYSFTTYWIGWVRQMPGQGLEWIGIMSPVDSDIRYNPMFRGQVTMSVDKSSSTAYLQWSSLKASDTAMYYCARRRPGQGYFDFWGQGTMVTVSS VL: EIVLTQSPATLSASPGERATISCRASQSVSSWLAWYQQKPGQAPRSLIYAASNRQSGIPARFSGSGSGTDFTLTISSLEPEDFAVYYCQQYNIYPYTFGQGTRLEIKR | 12.7 MFI

Hey, quick one: what's MFI for each of these?
1. ustekinumab (antibody, V domains shown) VH: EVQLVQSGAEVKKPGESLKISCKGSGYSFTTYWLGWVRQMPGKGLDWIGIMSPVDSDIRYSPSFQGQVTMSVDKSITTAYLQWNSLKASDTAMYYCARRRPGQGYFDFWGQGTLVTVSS VL: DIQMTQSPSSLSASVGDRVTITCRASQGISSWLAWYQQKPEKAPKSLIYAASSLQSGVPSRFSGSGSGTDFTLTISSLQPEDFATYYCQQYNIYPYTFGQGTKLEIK
2. H5L14 (antibody, human IgG1, kappa, V domains shown, human IgG1 / kappa constant regions; also called humanized antibody H5L14) VH: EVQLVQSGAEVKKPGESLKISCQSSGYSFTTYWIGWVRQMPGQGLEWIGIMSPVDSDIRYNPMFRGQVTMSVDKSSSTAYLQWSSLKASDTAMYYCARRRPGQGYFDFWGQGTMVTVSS VL: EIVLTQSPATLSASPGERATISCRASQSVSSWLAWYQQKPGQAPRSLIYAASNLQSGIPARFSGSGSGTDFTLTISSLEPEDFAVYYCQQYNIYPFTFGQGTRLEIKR

Key:
["11.5 MFI", "16.7 MFI"]

Where these numbers come from: patent US20220298235A1
